B1: tRNA (parent)
chain: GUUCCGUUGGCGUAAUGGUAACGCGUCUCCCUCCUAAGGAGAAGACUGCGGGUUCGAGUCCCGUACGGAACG

variants of: B1; assay: yeast fitness relative to wild type (ratio to wild type); higher = fitter; tRNA-Arg(CCU), competitive growth, 37 C, YPD
This sample holds only a part of the variants without activity.
Listed variants paired with reported yeast fitness
Answer field: number only, no words.

# Variant description, Observed property, Result number
data = [
    ("A21G G67U A69C", "yeast fitness", 0.528),
    ("G9A G38A A69C", "yeast fitness", 0.724),
    ("G9A C46G C49U A69U", "yeast fitness", 1.11),
    ("C27U U53C", "yeast fitness", 0.617),
    ("A21U A40U", "yeast fitness", 0.728),
]

Param item = U7G A36G A45G C49U ; retrieve measured yeast fitness. 0.641

Param item = C11U A40C U53A ; retrieve measured yeast fitness. 0.586

Param item = U19A G67C ; retrieve measured yeast fitness. 0.74

Param item = G10C A14U C62U ; retrieve measured yeast fitness. 0.51

Param item = C5G C34A G39C G52A G58A ; retrieve measured yeast fitness. 0.532

Param item = C22U A57C ; retrieve measured yeast fitness. 0.661

Param item = C11G C34A A36U G48A G52C C60A ; retrieve measured yeast fitness. 0.646

Param item = G10A G17C C30G C33G C61A A69U ; retrieve measured yeast fitness. 0.581

Param item = G12A C27U U32A ; retrieve measured yeast fitness. 0.702

Param item = G48C A69U ; retrieve measured yeast fitness. 0.95

Param item = A20U U26C ; retrieve measured yeast fitness. 0.89

Param item = U54C C60G ; retrieve measured yeast fitness. 0.539

Taken from the RNAGym collection of RNA variant scans (doi:10.1126/science.aae0568).
